# Test system: kochia (Kochia scoparia)
# Protocol text: Test A preemergence, directed soil spray, visual injury rating
# Type: in vivo
# Condition set: 125 g ai/ha, 0 is no effect, 100 is complete control
Assign Plant response rating (0 to 100 scale), Kochia to each entry below.
// no unit string in output, number only

Prompt line: Quick one: Plant response rating (0 to 100 scale), Kochia of `Cn1nc(Cl)c(O)c(-c2ccc(F)c3ccoc23)c1=O` ?
Response line: 40

Prompt line: Consider the compound shown here: `CC(=O)Oc1c(C)nn(C)c(=O)c1-c1ccc(Cl)c2ccsc12` What is its recorded Plant response rating (0 to 100 scale), Kochia?
Response line: 20

Prompt line: Fill blank: measured Plant response rating (0 to 100 scale), Kochia of the compound `Cc1nn(C)c(=O)c(-c2ccc(Cl)c3sccc23)c1OC(=O)c1ccccc1` is ____.
Response line: 0

Prompt line: Can you look up the measured Plant response rating (0 to 100 scale), Kochia of `Cc1cnc2sc(C)c(-c3c(OC(=O)C4CC4)c(C)nn(C)c3=O)c2c1` for me?
Response line: 0

Prompt line: Field request: Plant response rating (0 to 100 scale), Kochia | item: `Cc1nn(C)c(=O)c(-c2c(C)sc3ncccc23)c1OC(=O)C1CC1`
Response line: 0

Prompt line: What does the record list as Plant response rating (0 to 100 scale), Kochia for `CCOC(=O)Oc1c(C)nn(C)c(=O)c1-c1cccc2sccc12` ?
Response line: 10

Prompt line: // lookup Plant response rating (0 to 100 scale), Kochia for `CCOC(=O)Oc1c(C)nn(C)c(=O)c1-c1c(C)sc2ncc(C)cc12`
Response line: 0

Prompt line: // lookup Plant response rating (0 to 100 scale), Kochia for `CC(=O)Oc1c(Cl)nn(C)c(=O)c1-c1cccc2cccnc12`
Response line: 30

Prompt line: # input compound: `Cc1cnc2sc(C)c(-c3c(OC(=O)OC(C)C)c(C)nn(C)c3=O)c2c1` ; wanted: its Plant response rating (0 to 100 scale), Kochia
Response line: 0

* * *

For each record, write down the corresponding Ryegrass, It. plant response rating.
# System: ryegrass, It. (Italian ryegrass, Lolium multiflorum)
# Protocol text: Test A postemergence application, visual injury rating
# Assay type: in vivo
# Condition set: 125 g ai/ha, 0 to 100 scale, 0 no effect, 100 complete control
Kindly provide the number alone.

Prompt line: Query (compound): `CCc1sc2ncccc2c1-c1c(O)c(C)nn(C)c1=O` ; field requested: Ryegrass, It. plant response rating
Response line: 0

Prompt line: Given the compound `Cc1cc2c(-c3c(O)c(C)nn(C)c3=O)ccc(Cl)c2o1` , what is its reported Ryegrass, It. plant response rating?
Response line: 60

Prompt line: Dear colleague, I am looking for the recorded Ryegrass, It. plant response rating of the following compound: `COC(=O)Oc1c(C)nn(C)c(=O)c1-c1cccc2cc(C)oc12`
Response line: 60

Prompt line: # Ryegrass, It. plant response rating lookup, item `Cc1cc2c(-c3c(O)c(C)nn(C)c3=O)c(C)ccc2s1`
Response line: 100

Prompt line: Returns the measured Ryegrass, It. plant response rating for the input compound. Input: `Cc1cc2c(Cl)ccc(-c3c(O)c(C)nn(C)c3=O)c2o1`
Response line: 80

* * *

# System: pigweed (Amaranthus retroflexus)
# Protocol text: Test A preemergence, directed soil spray, visual injury rating
# Assay type: in vivo
# Condition set: 500 g ai/ha, 0 is no effect, 100 is complete control
Property measured: Plant response rating (0 to 100 scale), Pigweed
Reply: number alone, nothing else.

Prompt line: Need Plant response rating (0 to 100 scale), Pigweed, item `Cc1nn(C)c(=O)c(-c2cccc3scnc23)c1O`
Response line: 0

Prompt line: Which value of Plant response rating (0 to 100 scale), Pigweed has been reported for `CCc1sc2ncccc2c1-c1c(OC(=O)OC(C)C)c(C)nn(C)c1=O` in the records?
Response line: 40

Prompt line: # query: Plant response rating (0 to 100 scale), Pigweed of entry `CCOC(=O)Oc1c(C)nn(C)c(=O)c1-c1c(C)sc2ncc(C)cc12`
Response line: 80

Prompt line: Entry `Cc1nn(C)c(=O)c(-c2cccc3sccc23)c1O` has what Plant response rating (0 to 100 scale), Pigweed?
Response line: 100

Prompt line: Which Plant response rating (0 to 100 scale), Pigweed reading was recorded for the molecule `CCC(=O)Oc1c(C)nn(C)c(=O)c1-c1cccc2sccc12` ?
Response line: 70

Prompt line: I would be grateful if you could share the reported Plant response rating (0 to 100 scale), Pigweed for `CCc1sc2ncccc2c1-c1c(OC(=O)C2CC2)c(C)nn(C)c1=O` .
Response line: 0

Prompt line: So what's the measured Plant response rating (0 to 100 scale), Pigweed for this one? `CC(=O)Oc1c(C)nn(C)c(=O)c1-c1cncc2ccccc12`
Response line: 70

Prompt line: Report Plant response rating (0 to 100 scale), Pigweed for `CCOC(=O)Oc1c(C)nn(C)c(=O)c1-c1c(C)sc2ncccc12` please.
Response line: 0

Prompt line: Plant response rating (0 to 100 scale), Pigweed lookup needed for `Cc1nn(C)c(=O)c(-c2c(C)sc3ncccc23)c1OC(=O)OC(C)C` , thanks.
Response line: 0

* * *

# Tested on: barnyardgrass (Echinochloa crus-galli)
# Protocol text: Test A postemergence application, visual injury rating
# Format: in vivo
# Condition set: Echinochloa crus-galli, post-emergence, 240 h, 125 g ai/ha, 0 to 100 scale, 0 no effect, 100 complete control, read-out: Barnyardgrass plant response rating
Is pest or weed control at 125 g/ha at least 20%? Then yes (1). If not, no (0).

Prompt line: Is pest or weed control at 125 g/ha for Cc1cc2cccc(-c3c(O)c(C)nn(C)c3=O)c2o1 [Compound 12] at or above 20%?
Response line: no (0)

Prompt line: Check this compound for pest or weed control at 125 g/ha at or above 20%: Cn1nc(Cl)c(O)c(-c2nccc3ccccc23)c1=O [Compound 67]
Response line: no (0)

Prompt line: Textbook exercise: given the entry COc1c(C)nn(C)c(=O)c1-c1ccc(F)c2ccoc12 [Compound 69] , state whether its pest or weed control at 125 g/ha is greater than or equal to 20%.
Response line: no (0)

Prompt line: Hi, just wondering whether CC(=O)Oc1c(C)nn(C)c(=O)c1-c1cccc2cc(C)oc12 [Compound 13] shows pest or weed control at 125 g/ha of 20% or higher.
Response line: no (0)

Prompt line: Exam item: decide whether the reported pest or weed control at 125 g/ha for CC(=O)Oc1c(C)nn(C)c(=O)c1-c1c(C)ccc2cc(C)oc12 [Compound 11] is at least 20%.
Response line: yes (1)

Prompt line: Answer whether pest or weed control at 125 g/ha of Cc1nn(C)c(=O)c(-c2ccc(F)c3ccoc23)c1O [Compound 68] is greater than or equal to 20%.
Response line: no (0)

Prompt line: Test whether the compound Cc1cc2ccc(C)c(-c3c(O)c(C)nn(C)c3=O)c2o1 [Compound 10] records pest or weed control at 125 g/ha of 20% or higher.
Response line: yes (1)

Prompt line: Reported pest or weed control at 125 g/ha at or above 20%? CCOC(=O)Oc1c(C)nn(C)c(=O)c1-c1c(C)ccc2sccc12 [Compound 30]
Response line: no (0)

* * *

# Tested on: kochia (Kochia scoparia)
# Protocol text: Test A postemergence application, visual injury rating
# Assay type: in vivo
# Condition set: 125 g ai/ha, 0 to 100 scale, 0 no effect, 100 complete control
Property measured: Kochia plant response rating
Answer using only a numeral; do not append any unit.

Prompt line: So what does the record say about Kochia plant response rating for CCC(=O)Oc1c(C)nn(C)c(=O)c1-c1c(C)ccc2cc(C)oc12 [Compound 22] ?
Response line: 90

Prompt line: Consider the molecule COC(=O)Oc1c(C)nn(C)c(=O)c1-c1ccc(Cl)c2cc(C)oc12 [Compound 40] and give its measured Kochia plant response rating.
Response line: 0

Prompt line: Would you kindly share the measured Kochia plant response rating for Cn1ncc(O)c(-c2cccc3cnccc23)c1=O [Compound 34] ?
Response line: 0

Prompt line: Returns the measured Kochia plant response rating for the input molecule. Input: CC(=O)Oc1c(C)nn(C)c(=O)c1-c1ccc(Cl)c2oc(C)cc12 [Compound 54]
Response line: 10

Prompt line: # Kochia plant response rating lookup, item Cc1ccc2ccoc2c1-c1c(O)c(C)nn(C)c1=O [Compound 7]
Response line: 100

Prompt line: Query (molecule): CCOC(=O)Oc1c(C)nn(C)c(=O)c1-c1c(C)sc2ncccc12 [Compound 24] ; field requested: Kochia plant response rating
Response line: 0

Prompt line: Sample Cc1nc2c(-c3c(O)c(C)nn(C)c3=O)cccc2s1 [Compound 27] — what was its Kochia plant response rating?
Response line: 0

Prompt line: Kochia plant response rating for Cc1nn(C)c(=O)c(-c2c(C)sc3ncccc23)c1OC(=O)C1CC1 [Compound 23] ?
Response line: 0

Prompt line: For the molecule Cc1nn(C)c(=O)c(-c2ccc(Cl)c3ccsc23)c1O [Compound 55] , what Kochia plant response rating is on record?
Response line: 100

Prompt line: Entry COC(=O)Oc1c(C)nn(C)c(=O)c1-c1c(C)ccc2cc(C)oc12 [Compound 17] : reported Kochia plant response rating = ?
Response line: 90

Prompt line: Give its Kochia plant response rating value. Item: COC(=O)Oc1c(C)nn(C)c(=O)c1-c1cccc2cc(C)oc12 [Compound 28]
Response line: 40

Prompt line: Entry Cc1cc2c(-c3c(O)c(C)nn(C)c3=O)ccc(Cl)c2o1 [Compound 45] has what Kochia plant response rating?
Response line: 0

Prompt line: # query: Kochia plant response rating of entry Cc1cc2c(Cl)ccc(-c3c(O)c(C)nn(C)c3=O)c2o1 [Compound 43]
Response line: 0

Prompt line: Endpoint output: Kochia plant response rating of CC(=O)Oc1c(Cl)nn(C)c(=O)c1-c1nccc2ccccc12 [Compound 66] . Value?
Response line: 40

Prompt line: Could you tell me which Kochia plant response rating is on file for Cc1nn(C)c(=O)c(-c2cccc3sccc23)c1O [Compound 32] ?
Response line: 20

Prompt line: What value of Kochia plant response rating has been recorded for this entry: CCC(=O)Oc1c(C)nn(C)c(=O)c1-c1ccc(Cl)c2ccsc12 [Compound 36]
Response line: 30

Prompt line: Dear colleague, I am looking for the recorded Kochia plant response rating of the following molecule: CCc1sc2ncccc2c1-c1c(O)c(C)nn(C)c1=O [Compound 18]
Response line: 0

Prompt line: Could you tell me which Kochia plant response rating is on file for Cc1cnc2sc(C)c(-c3c(OC(=O)OC(C)C)c(C)nn(C)c3=O)c2c1 [Compound 6] ?
Response line: 30

Prompt line: I'd like to know its Kochia plant response rating. The molecule in question is Cn1nc(Cl)c(O)c(-c2cccc3c2nnn3C)c1=O [Compound 61]
Response line: 0

Source listed as patent US10750743B2.
